These entries and their values trace back to ChEMBL document CHEMBL1151596.

PROCEDURE TEXT: Compound was tested for inhibition of protein phosphatase 2A (PP2A)
Below is a list of entries, each paired with its recorded Ki value.

GIVEN SMILES	Ki, µM
C[C@@]12C(=O)OC(=O)[C@]1(C)[C@H]1CC[C@@H]2O1	0.065
O=C1OC(=O)[C@H]2[C@@H]1[C@@H]1CC[C@H]2O1	0.2
CN(C)C(=O)[C@H]1[C@@H](C(=O)O)[C@@H]2CC[C@H]1O2	0.18
O=C(O)[C@@H]1[C@H](C(=O)O)[C@H]2CC[C@@H]1O2	0.17

====

Tested on: Jurkat
PROCEDURE TEXT: Effect on the transcription and release of IL-2 in a reporter-gene assay (RGA)
Type: functional, cell-based
CONDITIONS USED: Homo sapiens
pIC50: −log10 of the molar value.
Below is a list of entries, each paired with its recorded pIC50 value.

COMPOUND	QUALIFIER SYMBOL	pIC50
CN(C)C(=O)[C@H]1[C@@H](C(=O)O)[C@@H]2CC[C@H]1O2	=	5.33
O=C(O)[C@@H]1[C@H](C(=O)O)[C@H]2CC[C@@H]1O2	<	4.00
C/C=C/C[C@@H](C)[C@@H](O)[C@H]1C(=O)N[C@@H](CC)C(=O)N(C)CC(=O)N(C)[C@@H](CC(C)C)C(=O)N[C@@H](C(C)C)C(=O)N(C)[C@@H](CC(C)C)C(=O)N[C@@H](C)C(=O)N[C@H](C)C(=O)N(C)[C@@H](CC(C)C)C(=O)N(C)[C@@H](CC(C)C)C(=O)N(C)[C@@H](C(C)C)C(=O)N1C [CYCLOSPORINE]	=	8.10
O=C1OC(=O)[C@H]2[C@@H]1[C@@H]1CC[C@H]2O1 [DEMETHYL-CANTHARIDIN]	<	4.66

====

Below is a list of entries, each paired with its recorded IC50 value.
PROCEDURE TEXT: Effect on the transcription and release of thymidine kinase in a reporter-gene assay (RGA)
Type: functional

COMPOUND	IC50
O=C(O)[C@@H]1[C@H](C(=O)O)[C@H]2CC[C@@H]1O2	42 µM
O=C1OC(=O)[C@H]2[C@@H]1[C@@H]1CC[C@H]2O1 [DEMETHYL-CANTHARIDIN]	100 µM
CN(C)C(=O)[C@H]1[C@@H](C(=O)O)[C@@H]2CC[C@H]1O2	100 µM

====

PROCEDURE TEXT: Compound was tested for inhibition of protein phosphatase 2B (PP2B, Calcineurin)

MOLECULE	Ki
C[C@@]12C(=O)OC(=O)[C@]1(C)[C@H]1CC[C@@H]2O1 [CANTHARIDIN]	10.8 µM
CCOC(=O)[C@@H]1[C@H](C(=O)OCC)[C@H]2CC[C@@H]1O2	> 100 µM
COC(=O)[C@H]1[C@@H](C(=O)O)[C@@H]2CC[C@H]1O2 (single isomer, unassigned)	> 100 µM
O=C(O)[C@@H]1[C@H](C(=O)O)[C@H]2CC[C@@H]1O2	3.02 µM
CN(C)C(=O)[C@H]1[C@@H](C(=O)O)[C@@H]2CC[C@H]1O2	2.78 µM
O=C1OC(=O)[C@H]2[C@@H]1[C@@H]1CC[C@H]2O1 [DEMETHYL-CANTHARIDIN]	3.33 µM

====

PROCEDURE TEXT: Compound was tested for inhibition of […] ([…])

GIVEN SMILES	IC50 [µM]
O=C1OC(=O)[C@H]2[C@@H]1[C@@H]1CC[C@H]2O1	5
